Target: Gal(a1-4)GlcNAc
Assay: glycan array binding signal (z-score within array); higher = stronger binding
Conditions: glycan notation: IUPAC condensed, linker removed
This excerpt belongs to a sample that is enriched for the strongest signals.
Consider the following binders and their measured glycan array binding signal (z-score) readings.
experimental.readout: glycan array binding signal (z-score)

>>> test_value("UEA-I (Ulex europaeus), P22972 (protein) SDDLSFKFKNFSQNGKDLSFQGDASVIETGVLQLNKVGNNLPDETGGIARYIAPIHIWNCNTGEVASFITSFSFFMETSANPKAATDGLTFFLAPPDSPLRRAGGYFGLFEDTKDNDSSYQTVAVEFDTIGSPVNFDDPGFPHIGIDVNRVKSINAERWNKRYGLNNVANVEIIYEASSKTLTASLTYPSDQTSISVTSIVDLKEILPEWVSVGFSGGTYIGRQATHEVLNWYFTSNLIN")
-0.174
>>> test_value("Gal 3C (Homo sapiens), P17931 (protein) YGAPAGPLIVPYNLPLPGGVVPRMLITILGTVKPNANRIALDFQRGNDVAFHFNPRFNENNRRVIVCNTKLDNNWGREERQSVFPFESGKPFKIQVLVEPDHFKVAVNDAHLLQYNHRVKKLNEISKLGISGDIDLTSASYTMI")
-0.295
